assay: Crystallinity by powder X-ray diffraction; format: physicochemical; conditions: drug substance crystals as obtained
Endpoint name: crystallinity (%)

{"Compound": "CCn1c(=O)c2c(nc(/C=C/c3ccc(OC)c(OC)c3)n2C)n(CC)c1=O [Crystals B]", "crystallinity [%]": 71.6}
{"Compound": "CCn1c(=O)c2c(nc(/C=C/c3ccc(OC)c(OC)c3)n2C)n(CC)c1=O [Microcrystals B]", "crystallinity [%]": 67.3}
{"Compound": "CCn1c(=O)c2c(nc(/C=C/c3ccc(OC)c(OC)c3)n2C)n(CC)c1=O [Unpulverized “Crystals of Compound 1”]", "crystallinity [%]": 87.2}
{"Compound": "CCn1c(=O)c2c(nc(/C=C/c3ccc(OC)c(OC)c3)n2C)n(CC)c1=O [Microcrystals A]", "crystallinity [%]": 84.6}
